- Tested on: BuGH3MLG
- Protocol text: p-nitrophenol release, absorbance […] nm
- Format: biochemical, Bacteroides uniformis
- Test conditions: sodium phosphate pH 5.7, 37 °C
Property measured: Km (µM)

>  <Molecule>
O=[N+]([O-])c1ccc(O[C@@H]2O[C@H](CO)[C@@H](O[C@@H]3O[C@H](CO)[C@@H](O)[C@H](O)[C@H]3O)[C@H](O)[C@H]2O)cc1 [p-Nitrophenyl β-D-cellobioside]

>  <Display unit>
µM

>  <Km>
640

$$$$

a = CC(=O)N[C@H]1[C@H](Oc2ccc([N+](=O)[O-])cc2)O[C@H](CO)[C@@H](O)[C@@H]1O [p-nitrophenyl-N-acetyl glucosaminide]
b = O=[N+]([O-])c1ccc(O[C@@H]2O[C@H](CO)[C@@H](O)[C@H](O)[C@H]2O)cc1 [p-Nitrophenyl-β-D-glucopyranoside]
c = O=[N+]([O-])c1ccc(O[C@@H]2O[C@H](CO)[C@@H](O)[C@H](O[C@@H]3O[C@H](CO)[C@@H](O)[C@H](O)[C@H]3O)[C@H]2O)cc1 [p-Nitrophenyl β-D-laminaribioside]
## Input Put these in order: smallest Km first, largest last. Return the labels ranked in the requested order, please.
## Output b, c, a
(b: 530 µM, c: 880 µM, a: 2900 µM)
